Assay: Drug level in C57/B6 mouse muscle at 10 mg/kg, ip after 1 hr
Assay type: ADME, organism-based, Muscle tissue
Parameters: dose 10 mg/kg, route intraperitoneal
Settings: read-out: Drug uptake
parameter: concentration at 1 h (µM)

O=C(O)COc1c(C(=O)O)sc(-c2cccc(NC3CCN(S(=O)(=O)Cc4ccccc4)CC3)c2)c1Br | 3.5

---

Assay: Plasma clearance in Sprague-Dawley rat at 2 mg/kg, iv
Format: ADME, organism-based
Design: dose 2 mg/kg, route intravenous
parameter: clearance (mL/min/kg)

O=C(O)COc1c(C(=O)O)sc(-c2cccc(NC3CCN(S(=O)(=O)Cc4ccccc4)CC3)c2)c1Br | 7

---

Assay: Stability in mouse liver microsomes
Format: ADME, Microsome
parameter: half-life

O=C(O)COc1c(C(=O)O)sc(-c2cccc(NC3CCN(S(=O)(=O)Cc4ccccc4)CC3)c2)c1Br | > 1 h

---

Target: Tyrosine-protein phosphatase non-receptor type 1 (Homo sapiens, UniProt P18031)
Assay: Inhibition of human recombinant PTP1B
Response field label: string, one of YES (Ki strictly below 0.3 µM) or NO.

O=C(O)COc1c(C(=O)O)sc(-c2cccc(NCC3CCN(S(=O)(=O)c4ccccc4)CC3)c2)c1Br | NO
O=C(O)COc1c(C(=O)O)sc(-c2cccc(NC3CCCCCC3)c2)c1Br | YES
O=C(O)COc1c(C(=O)O)sc(-c2cccc(NC3CCN(S(=O)(=O)Cc4ccccc4)CC3)c2)c1Cl | YES
O=C(O)COc1c(C(=O)O)sc(-c2cccc(NCC3CCN(S(=O)(=O)Cc4ccccc4)CC3)c2)c1Br | YES
CCNC(=O)Nc1ccccc1CS(=O)(=O)N1CCC(Nc2cccc(-c3sc(C(=O)O)c(OCC(=O)O)c3Br)c2)CC1 | YES
CCC(=O)Nc1cccc(-c2sc(C(=O)O)c(OCC(=O)O)c2Br)c1 | NO
Cc1cccc(C)c1NC(=O)N1CCC(CNc2cccc(-c3sc(C(=O)O)c(OCC(=O)O)c3Br)c2)CC1 | YES

---

Biological target: Tyrosine-protein phosphatase non-receptor type 1 (Homo sapiens)
Sequence (P18031 whole entry): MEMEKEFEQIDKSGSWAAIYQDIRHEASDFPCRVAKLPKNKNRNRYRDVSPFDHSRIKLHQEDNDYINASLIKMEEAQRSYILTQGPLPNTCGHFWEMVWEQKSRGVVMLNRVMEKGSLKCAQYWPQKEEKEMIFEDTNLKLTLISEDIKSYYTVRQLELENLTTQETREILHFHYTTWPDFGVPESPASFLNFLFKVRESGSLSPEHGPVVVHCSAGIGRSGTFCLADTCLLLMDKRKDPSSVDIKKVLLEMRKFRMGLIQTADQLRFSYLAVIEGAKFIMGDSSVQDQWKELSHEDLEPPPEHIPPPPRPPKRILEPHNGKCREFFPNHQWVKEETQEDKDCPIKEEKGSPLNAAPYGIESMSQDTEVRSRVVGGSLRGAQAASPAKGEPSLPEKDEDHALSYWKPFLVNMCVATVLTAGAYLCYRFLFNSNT
Experiment: Inhibition of human recombinant PTP1B
pKi: −log10 of the molar value.
The label depends only on pKi: 1 if it is at least 7, 0 if it is smaller.

Cc1cccc(C)c1CS(=O)(=O)N1CCC(Nc2cccc(-c3sc(C(=O)O)c(OCC(=O)O)c3Br)c2)CC1 | 1
O=C(O)COc1c(C(=O)O)sc(-c2cccc(NC3CCCC3)c2)c1Br | 0
CS(=O)(=O)N1CCC(Nc2cccc(-c3sc(C(=O)O)c(OCC(=O)O)c3Br)c2)CC1 | 1
O=C(O)COc1c(C(=O)O)sc(-c2cccc(OCc3ccccc3)c2)c1Br | 0
O=C(O)COc1c(C(=O)O)sc(-c2cccc(NC3CCN(S(=O)(=O)Cc4ccccc4C(F)(F)F)CC3)c2)c1Br | 1
O=C(O)COc1c(C(=O)O)sc(-c2cccc(NC3CCN(S(=O)(=O)Cc4ccc(Cl)cc4)CC3)c2)c1Br | 1
COc1cccc(-c2sc(C(=O)O)c(OCC(=O)O)c2Br)c1 | 0
COC(=O)Nc1cccc(-c2sc(C(=O)O)c(OCC(=O)O)c2Br)c1 | 0
O=C(O)COc1c(C(=O)O)sc(-c2cccc(NCC3CCCCC3)c2)c1Br | 0
